Experiment Description: yeast display, Sf9 membrane polyspecificity reagent, FACS + sequencing; frameworks hold sequencing errors
Observable: polyreactivity (PSR sort gate)

Example entries begin here.
# Residue Codes, Reported Result
data = [
    ("QVQLVESGGGLVQAGGSLRLSCAASGSIFWGNAMGWYRQAPGKERELVAAIDWSGGSTYYADSVKGRFTISRDNAKNTVYLQMNSLKPEDTAVYYCAADYLGGGDVGFDYWGQGTQVTVSS", "low polyreactivity"),
    ("QVQLVESGGGLVQAGGSLRLSCAASGRTFRPYAMGWYRQAPGKERQFVAAISSSGGSTYYADSVKGRFSISRDNAKNTVYLLMNSLKPEDTAVYYCATGRKNAAQRWGYYYWGQGTQVTVSS", "high polyreactivity"),
    ("QVQLVESGGGLVQAGGSLRLSCAASGFIFTGYAMGWYRQAPGKERELVAAISRRGGSTYYADSVKGRFTISRDNAKNTVYLQMNSLKPEDTAVYYCAARTRTNGFDDWGQGTQVTVSS", "high polyreactivity"),
    ("QVQLVESGGGLVQAGGSLRLSCAASGSTFLYYAMGWYRQAPGKERELVARITTRVGRTYYADSVKGRFTISRDNAKNTVYLQMNSLNPEDTAVYYCAAYPDYSYYYWGQGTQVTVSS", "high polyreactivity"),
]

QUERY: For the sequence shown here, `QVQLVESGGGLVQAGGSLRLSCAASGRTFWFNAMGWYRQAPGKEREFVAAISWRGGSTYYADSVKGRFTISRDNAKNTVYLQMNSLKPEDTAVYYCAVDGEYYSDVYLYYRWDDYWGQGTQVTVSS` , give the reported polyreactivity (PSR sort gate).
RESULT: low polyreactivity

* * *

Experiment Description: yeast display, Sf9 membrane polyspecificity reagent, FACS + sequencing; frameworks hold sequencing errors
Observable: polyreactivity (PSR sort gate)

Example entries begin here.
# Residue Codes, Observable, Reported Result
records = [
    ("QVQLVESGGGLVQAGGSLRLSCADSGSIFAGNAMGWYRQAPGKERELVAAISRRGGSTYYADSVKGRFTISRDNAKNTVYLQMNSLKPEDTAVYYCNALLRYAYHAAYGYWGQGTQVTVSS", "polyreactivity (PSR sort gate)", "high polyreactivity"),
    ("QVQLVESGGGLVQAGGSLRLSCPASGSTFGPYAMGWYRQAPGKERELVAAISSTGGSTYYADSVKGRFTISRDNAKNTVYLQMNSLKPEDTAVYYCAAYSTYARGYWGQGTQVTVSS", "polyreactivity (PSR sort gate)", "high polyreactivity"),
    ("QVQLVESGGGLVQAGGSLRLSCAASGSTFPQYAMGWYRQAPGKERELVAAISRSGGSTYYADSVKGRFTISRDNAKNTVYLQMNSLKPEDTAVYYCNVKSGFWFYPTMDYWGQGTQVTVSS", "polyreactivity (PSR sort gate)", "high polyreactivity"),
    ("QVQRVESGGGLVQAGGSLRLSWAASGSTFSRYAMGWYRQAPGTERELVAAISASGGGTYYADSVKGRFTISRDNAKNTVYLQMNSLQPEDTAVFYCAAVRIARAVQDYDYWGQGTQVTVSS", "polyreactivity (PSR sort gate)", "high polyreactivity"),
]

Look up polyreactivity (PSR sort gate) for the entries below, preserving their order.
1. QVQLVESGGGLVQAGGSLRLSCAASGLTFEWYTMGWYRQAHGKEREMVAVITVSGSSTYYADSVKGRFTISRDNAKNTVYLQMNSLKPEDTAVYYCNADWSFYSYTLYDYWGQGSQVTVSS
2. QVQLVESGGGLVQAGGSLRLSCAASGGTCSFYTMGWYRQAPGKERELVAAISRSGGRTYYADSVKGRFTISRDNAQNTVYLQMNSLKPEDTAVYYCAAERFSNIYTTMGYWGQGTQVTVSS
3. QVQLVESGGGLVQAGGSLRLSCAASGSIFWSYAMGWYRQAPGKERELVAVINWSGGSTYYADSVKGRFTISRDNAKNTVYLQMNSLKPEDTAVYYCNKDLGPTKRPFTFDYWGQGTQVTVSS

RESULT:
1: low polyreactivity; 2: high polyreactivity; 3: low polyreactivity

* * *

Experiment Description: yeast display, Sf9 membrane polyspecificity reagent, FACS + sequencing; frameworks hold sequencing errors
Observable: polyreactivity (PSR sort gate)

Example entries begin here.
# Residue Codes, Reported Result
records = [
    ("QVQLVESGGVLVQAGGSLRLSCAATGYIFHLYGMGWYRQAPGKERELVARITYRRGSTYYADSVKGRFTISRDNAKNTVYLQMNSLKPEDTAVYYCAKRRGYGYNYWGQGTQVTVSS", "high polyreactivity"),
    ("QVQLVESGGGLVQAGGSLRLTCAASGGTISVYDMGWYRQAHGNERELVAAIRDRGVSTYYADSVKGRFTISRDTAKNTVYLQMNSLKPEDTAVYYCAAEYFDGSTYSYYYWGQGTQVTVSS", "high polyreactivity"),
    ("QVQLVESGGGLVQAGGSLRLSCAASGSTFYVYDMGWYRQAPGKERELVADISWSGGSTYADSVKGRFTISRDNAKNTVYLQMNSLKPEDTAVYYCAATSRPRPYHGGRMYYWGQGTQVTVSS", "high polyreactivity"),
    ("QVQLVESGGGLVQAGGSLRLSCAAYGRTFGYNTMGWYRQAPGKERELVATIRTNGVSTYYADSVKGRFTISRDNAKNTVYLQMNSLKPEDTAVYYCNADPHDQYDYWGQGTQVTVSS", "low polyreactivity"),
]

Look up polyreactivity (PSR sort gate) for the entries below, preserving their order.
1. QVQLVESGAGLVQEGGRLRLRCAASGFTFMDNAMGCYRKAPGKETQLVAAISRSGGSTYYADSVKGRFTISRDNAKNTVYLQMKSLKPEDTEGFYCAAFLYRSQYSGFEYWGQGTQVTVSS
2. QVQLVESGGGLVQAGGSLRLSCAASGSIFYSNAMGWYRQAPGKEREFVAAISAGGGSTYYADSVKGRFTISRDNAKNTVYLQMNSLKPEDTAVYYCAAQPYKIIYPYDYWGQGTQVTVSS
3. QVQLVESGGGLVQAGGSLRLSCAASGITFSRYGMGWYRQAPGKERELVAVISWRGGRTYYADSVKGRFTISRYNAKNTVYLHMNSLKPEDTAVYYCAADSRQSVYDYDYWGQGTQVTVSS
4. QVQLVESGGGLVHAGGSLRLSCAASGSIFDYYAMGWYRQAPGKERELVAAISTSTSSTYYADSVKGRFTISRDNAKNTVCLQMNSLKPEDTAVYYCAAEGESQPESPGYDYWGQGTQVTVSS

RESULT:
high polyreactivity
low polyreactivity
high polyreactivity
low polyreactivity

* * *

Experiment Description: yeast display, Sf9 membrane polyspecificity reagent, FACS + sequencing; frameworks hold sequencing errors
Observable: polyreactivity (PSR sort gate)

# Residue Codes, Observable, Reported Result
data = [
    ("QVQLVESGGGLVQAGGSLRLSCAASGSIFGLNGMGWYIQAPGKERELVASISASGGSTYYADSVKGRFTISRDNAKNTVYLQMNSLKPEDTAVYYCAARVVYGAGLSSSGPKQYTRRFYYWGQGTQVTVSS", "polyreactivity (PSR sort gate)", "high polyreactivity"),
    ("QVQLVESGGGLVQAGGSLRLSCAASGLIFNYYAMGWYRQAPGKEREFVAAISGRGGNTYYADSVKVRFTISRDNAKTTVYLQINSLKPEDTAVYYCAARRYYSNREYDYWGQGTQVTVSS", "polyreactivity (PSR sort gate)", "high polyreactivity"),
    ("QVQLVESGRGLVQAGGSLRLSCAASGITFGWYAMGWYRQPPGKATELVASISSSGSTNYADSVKGRFTNSRDNAKNTVYLQMNSLKPEDTAVYYCNKDYLLRHYYIYVIEGDYWGQGTQVTVSS", "polyreactivity (PSR sort gate)", "low polyreactivity"),
    ("QVQLVESGGGLVQAGGSLRLSCAASGNTFGGYAMGWYRQAPGKERELVAAIRYSGTSTYYADSVKGRFTISRDNAKNTVYLQMNSLKPEDTAVYYCAATYTRVPNRFYYWGQGTQVTVSS", "polyreactivity (PSR sort gate)", "high polyreactivity"),
]

QUERY: For the sequence shown here, `QVQLVESGGGLVQAGGSLRLSCAASGSIFPWYAMGWYRQAPWKERELVAGISSGGGTNYADSVKGRFTISRDNAKNTVYLQMNSMKPEDTAVYYCNADYFGGGDYWGQGTQVTVSS` , give the reported polyreactivity (PSR sort gate).
RESULT: low polyreactivity

* * *

Experiment Description: yeast display, Sf9 membrane polyspecificity reagent, FACS + sequencing; frameworks hold sequencing errors
Observable: polyreactivity (PSR sort gate)

Example entries begin here.
# Residue Codes, Observable, Reported Result
records = [
    ("QVQLVESGGGLVQAGGSLRLSCAASGRIFRWNAMGWYRQAPGKERELVAAISRSGGSTYYADSVKRRFTISRDNAKNTVYLQMNSLKPEDTAVYYCNTRFSTFTAPGYYYWGQGTQVTVSS", "polyreactivity (PSR sort gate)", "high polyreactivity"),
    ("QVQLVESGGGIVQAGGSLRLSCAASGSIFSTNAMGWYRQAPWKERELVAAIDITNYADSVKGRFTISRDNAKNTVYLQMNSLKPEDTAVYYCNADTYSVVREGDYWGQGTQVTVSS", "polyreactivity (PSR sort gate)", "low polyreactivity"),
    ("QVHLVESGGGLVKAGGSLRLSCAASGGTIFVYMGWYRQDPGKETELVADISGSGGGTYYADSVKGRFTISRDNAMNTVYLQMNSLKPEDTAVYYCAAYYGHTYNGYYYWGQGTQVTVSS", "polyreactivity (PSR sort gate)", "low polyreactivity"),
    ("QVQLVESGGGLVQAGGSLRLSCAASGSTFKRYAMGWYRQAPGKERELVAANSASGGSTSYADSVKGRFTISRDNAKITVYLQMNSLTPEDTAVYYCAPYYWLYSSSYDYWGQGTQVTVSS", "polyreactivity (PSR sort gate)", "high polyreactivity"),
    ("QVQLVESWGGLVQAGGSLRLSCAASGITFFFYAMGLYRLAPGKERELVASITWEDGSTYYADSVKGRFTISRDNANNTVYLQKNSLKPEDTAVYYCAADFEAGGYSLDYWGQGTQVTVSS", "polyreactivity (PSR sort gate)", "low polyreactivity"),
]

Look up polyreactivity (PSR sort gate) for the entries below, preserving their order.
1. QVQLVESGGGLVQAGGSLRLSCDASGSIFTPYAMGWYRQAPGKERELVAAINWNGGRTYYADSVKGRFTISRDNAKNRVYLQMNCLKPEDTAVYYCFLYYWANYPYNYWGQGTQVNVSS
2. QVQLVESGGGLVQAGGSLRLICAASGSTFPSYAMGWYRQAPGKERELVAAITWSGDSTYYADSVKGRFTILRDNAKNTVYLQMNSLKPEDTAVYYCAKDGGYPVGVLGGDDMEYWGQGTQVTVSS
3. QVQLVESGGGLVQAGGSLRLSCAASGSTFRGYAMGWYRQAPGKEREFVAAISRRGGTTYYADSVKGRFTISRDNAKNTVDLQMNSRNPEDTAVYYCNAVLYARQRDRWARYDYWGQGTQVTVSS
4. QVQLVESGGGLVQAGGSLRLSCAASGTTFYSNAMGWYRQAPGKEREFVAAISYSGGSTYYADSVKGRFTISRDNAKYTVYLQMNSLKPEDTAVYYCNARNWYYDGDYWVQGTQVTVSS

RESULT:
1. low polyreactivity
2. low polyreactivity
3. high polyreactivity
4. high polyreactivity

Look up polyreactivity (PSR sort gate) for the entries below, preserving their order.
1. QVQLVESGGGLVQAGGSLRISCAASGSTFYKYDMGWYRQAPGKEREFVAVISRSGGNTYYADSVKGRFTISRDNAKNTVYLQMNSLKPEDTAVSYCAADNYPDEYDYWGQGTQVTVSS
2. QVQLVESGGGLVQAGGSLRLSCAASGRTFRTYAMGWYRQAPGKERELVAAITTSGSSTYYADSVKGRFTISRDNAKNTVYLQMNSLKPEDTAVYYCAAARAAIVPGYYSWGQGTQVTVSS
3. QVQLVESGGGLVQAGGSLSLSCAASGFNSSHYAMGWYRQAPGKERELVATISSGGSTYADSVKGRFTISRDNAKNTVYLQMNSLKPEDTAVYYCDKGVRYKQYHIMYYWGQGTQVTVSS
4. QVQLVESGGGLVQAGGSLRLSCAASGRIFVVYAMGWYRQAPGKERELVAAITYGGGSTHYADSVKGRFTISRDNAKNTVYLQMNSLKPEDTAVYYCAADLFYHSYGYEYWGQGTQVTVSS
5. QVQLVESGGGLVQAGGSLRLSCAASGIILTEYAMGWYRQAPGKERELVAAINRVGSTNYADSVKGRFTISRDNAKNTVYLQMNSLKPEDTAVYYCAAGTYYNDYDYWGQGTQVTVSS

RESULT:
1. low polyreactivity
2. low polyreactivity
3. high polyreactivity
4. low polyreactivity
5. low polyreactivity

Look up polyreactivity (PSR sort gate) for the entries below, preserving their order.
1. QVQHVESGGGLVQAGGSLRLSCAASGSTIRNYAMGWYRQAHGKERELVAAISSGGRTYYADSVKGRFTISRDNAKNPVYLQMTSLKPEDTAVYYCAARVYYWSFAGILYTPTGGYWGQGTQVTVSS
2. QVQLVESGGGLVQAGGSLRLSCAASGSTLRSYTMGWYRQAPGKERELVAAITTTGRTYYADSVKGRFTISRDNAKNTVYLQMNSLKPEDTAVYYCNAVAPGKYNHWGQGTQVTVSS

RESULT:
1. high polyreactivity
2. high polyreactivity
